Biological target: N2 NA (Influenza A virus, UniProt P0DOF9)
Sequence (P0DOF9 whole entry, looked up): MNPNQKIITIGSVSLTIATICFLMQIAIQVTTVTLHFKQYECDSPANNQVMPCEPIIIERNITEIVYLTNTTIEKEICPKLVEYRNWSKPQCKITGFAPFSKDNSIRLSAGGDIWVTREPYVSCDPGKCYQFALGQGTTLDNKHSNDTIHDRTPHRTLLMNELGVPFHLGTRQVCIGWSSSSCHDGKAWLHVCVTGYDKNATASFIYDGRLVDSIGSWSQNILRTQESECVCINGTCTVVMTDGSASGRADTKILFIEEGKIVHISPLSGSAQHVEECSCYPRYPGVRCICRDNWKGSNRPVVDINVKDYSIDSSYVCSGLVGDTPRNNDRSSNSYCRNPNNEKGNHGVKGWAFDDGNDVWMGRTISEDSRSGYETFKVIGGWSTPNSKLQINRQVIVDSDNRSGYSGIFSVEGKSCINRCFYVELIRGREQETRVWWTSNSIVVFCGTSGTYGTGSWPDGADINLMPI
quantity_measured: pIC50
Reminder that pIC50 is minus the log10 of a molar concentration.

Form field - read-out: pIC50; system: N2 NA (Influenza A virus, UniProt P0DOF9); submitted item: Nc1c(S(=O)(=O)O)cc(Nc2cccc(S(=O)(=O)CCOS(=O)(=O)O)c2)c2c1C(=O)c1ccccc1C2=O [RB19, Remazol Brilliant Blue R] 4.82

====

Target: Bac-NA^WT (Influenza A virus)
Sequence (Q6DPL2 63-449 limits assumed): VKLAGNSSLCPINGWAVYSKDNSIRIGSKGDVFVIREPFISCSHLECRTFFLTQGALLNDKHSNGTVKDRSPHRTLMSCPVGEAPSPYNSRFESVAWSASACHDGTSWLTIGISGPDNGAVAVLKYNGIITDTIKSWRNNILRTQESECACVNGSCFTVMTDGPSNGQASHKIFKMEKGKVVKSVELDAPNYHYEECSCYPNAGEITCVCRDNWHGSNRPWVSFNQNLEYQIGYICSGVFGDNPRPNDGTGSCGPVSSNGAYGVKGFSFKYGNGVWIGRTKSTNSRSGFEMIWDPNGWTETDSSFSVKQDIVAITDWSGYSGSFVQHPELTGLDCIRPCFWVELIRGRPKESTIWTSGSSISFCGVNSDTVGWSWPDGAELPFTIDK
quantity_measured: IC50 (µM)
Provide only the numeric value, understood in µM.

Form field - read-out: IC50; system: Bac-NA^WT (Influenza A virus); submitted item: "Nc1c(S(=O)(=O)O)cc(Nc2cccc(S(=O)(=O)CCOS(=O)(=O)O)c2)c2c1C(=O)c1ccccc1C2=O" 3.4
